Assay: Drug level in mdr1a deficient mouse brain at 0.5 mg/kg after 0.5 hrs
Type: ADME, organism-based
Set-up: dose 0.5 mg/kg
Details: read-out: Drug uptake
PROPERTY MEASURED: concentration at 0.5 h (nM)

SMILES REPRESENTATION	PROPERTY MEASURED	REPORTED RESULT
Cn1nc(C2CCN(CCC(=O)N3CCC[C@H]3c3nc4cc(Cl)c(Cl)cc4[nH]3)CC2)cc1-c1ccncc1	concentration at 0.5 h	70

----------
Experiment: Plasma concentration in eDIO mouse at 10 to 60 mg/kg, sc by continuous infusion pump for 7 days
Format: ADME, organism-based
Parameters: dose 10-60 mg/kg, route subcutaneous
PROPERTY MEASURED: concentration at 168 h (nM)

SMILES REPRESENTATION	UNIT TAG	REPORTED RESULT
Cn1nc(C2CCN(CCC(=O)N3CCC[C@H]3c3nc4cc(Cl)c(Cl)cc4[nH]3)CC2)cc1-c1ccncc1	nM	90

----------
Test: Ratio of drug level in brain to plasma in wild type CF1 mouse at 0.5 mg/kg after 0.5 hrs
Type: ADME, organism-based
Set-up: dose 0.5 mg/kg
Settings: read-out: BPR
PROPERTY MEASURED: Kp at 0.5 h

SMILES REPRESENTATION	PROPERTY MEASURED	REPORTED RESULT
Cn1nc(C2CCN(CCC(=O)N3CCC[C@H]3c3nc4cc(Cl)c(Cl)cc4[nH]3)CC2)cc1-c1ccncc1	Kp at 0.5 h	0.2

----------
Test: Plasma concentration in eDIO mouse at 12 mg/kg sc by continuous infusion pump qd for 7 days
Type: ADME, organism-based
Set-up: dose 12 mg/kg, route subcutaneous
PROPERTY MEASURED: concentration at 168 h (nM)

SMILES REPRESENTATION	UNIT TAG	REPORTED RESULT
Cn1nc(C2CCN(CCC(=O)N3CCC[C@H]3c3nc4cc(Cl)c(Cl)cc4[nH]3)CC2)cc1-c1ccncc1	nM	210

----------
Each item that follows carries a reported half-life.
Experiment: Half life in mouse at 1 mg/kg, iv and 2 mg/kg, po
Assay type: ADME, organism-based
Settings: in vivo

COMPOUND	half-life
CS(=O)(=O)c1ccc(-c2noc(C3CCN(CCC(=O)N4CCC[C@H]4c4nc5cc(Cl)c(Cl)cc5[nH]4)CC3)n2)cc1	2.2 h
Cn1nc(C2CCN(CCC(=O)N3CCC[C@H]3c3nc4cc(Cl)c(Cl)cc4[nH]3)CC2)cc1-c1ccncc1	4.1 h
O=C(CCN1CCC(c2nc(-c3ccncc3)no2)CC1)N1CCC[C@H]1c1nc2cc(Cl)c(Cl)cc2[nH]1	4.9 h
CC(C)(CCCC(=O)N1CCC[C@H]1c1nc2cc(Cl)c(Cl)cc2[nH]1)N1CCC(c2nc(-c3ccccn3)no2)CC1	3.1 h
CS(=O)(=O)c1ccc(-c2noc(C3CCN(CCC(=O)N4CCC[C@H]4c4nc5cc(Cl)c(Cl)cc5[nH]4)C(=O)C3)n2)cc1 (stereo not given in full)	1.3 h

----------
Test: Drug level in wild type CF1 mouse brain at 0.5 mg/kg after 0.5 hrs
Assay type: ADME, organism-based
Set-up: dose 0.5 mg/kg
Conditions: read-out: Drug uptake

SMILES REPRESENTATION	concentration at 0.5 h / nM
Cn1nc(C2CCN(CCC(=O)N3CCC[C@H]3c3nc4cc(Cl)c(Cl)cc4[nH]3)CC2)cc1-c1ccncc1	10
